assay_system: T1, Bcl-W (UniProt Q92843-1 1-172, limits assumed)
T1 construct: also called anti-apoptotic member of the Bcl-2 protein family
T1 sequence (looked up): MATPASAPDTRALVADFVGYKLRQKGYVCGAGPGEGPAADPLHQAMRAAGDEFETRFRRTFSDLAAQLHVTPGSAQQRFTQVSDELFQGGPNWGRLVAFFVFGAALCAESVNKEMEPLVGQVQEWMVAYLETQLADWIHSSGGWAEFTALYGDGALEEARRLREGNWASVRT
test_details: fluorescence polarisation competition; tracer Bak BH3 carboxyfluorescein 15 nM, Bcl-W 1 µM
pKi: −log10 of the molar value.
measured_endpoint: pKi

>>> df
                                     binder  recorded_result
0  GTMENLSRRLKVTGDLFDIMSGQTDV [Beclin peptide, motif GTMENLSRRLKVTGDLFDIMSGQTDV of the Beclin protein]             5.13
